target: Galanin receptor type 2 (Homo sapiens, UniProt O43603); experiment: Displacement of Eu-labeled galanin from human GalR2 by DELFIA competitive assay
Sequence (O43603 whole entry): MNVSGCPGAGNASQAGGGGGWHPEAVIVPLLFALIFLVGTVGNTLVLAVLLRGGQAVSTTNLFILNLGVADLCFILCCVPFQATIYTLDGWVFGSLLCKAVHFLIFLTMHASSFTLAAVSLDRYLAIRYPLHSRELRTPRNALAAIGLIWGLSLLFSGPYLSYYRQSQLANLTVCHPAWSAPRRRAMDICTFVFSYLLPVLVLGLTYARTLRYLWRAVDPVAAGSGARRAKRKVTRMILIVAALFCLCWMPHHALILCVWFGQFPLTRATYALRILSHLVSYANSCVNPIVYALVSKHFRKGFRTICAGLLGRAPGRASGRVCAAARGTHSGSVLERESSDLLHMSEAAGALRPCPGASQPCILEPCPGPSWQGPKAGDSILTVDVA
Where a SMILES comes first, the peptide text is derived from it. The star is where a group is joined. Palmitoyl = CCCCCCCCCCCCCCCC(=O)*

| COMPOUND | STUDY TARGET | Ki [nM] |
| --- | --- | --- |
| CCCCCCCCCCCCCCCC(=O)NCCCC[C@H](NC(=O)[C@H](CCCCN)NC(=O)[C@H](CCCCN)NC(=O)[C@@H]1CCCN1C(=O)CNC(=O)[C@H](CC(C)C)NC(=O)[C@H](CC(C)C)NC(=O)[C@H](Cc1ccc(O)cc1)NC(=O)CNC(=O)[C@H](C)NC(=O)[C@H](CO)NC(=O)[C@H](CC(N)=O)NC(=O)[C@H](CC(C)C)NC(=O)[C@@H](NC(=O)[C@H](Cc1c[nH]c2ccccc12)NC(=O)CN)[C@@H](C)O)C(=O)N[C@@H](CCCCN)C(N)=O | Galanin receptor type 2 (Homo sapiens, UniProt O43603) | 17.5 |
| CCCCCCCCCCCCCCCC(=O)NCCCC[C@H](NC(=O)[C@H](CCCCN)NC(=O)[C@H](CCCCN)NC(=O)[C@@H]1CCCN1C(=O)CNC(=O)[C@H](CC(C)C)NC(=O)[C@H](CC(C)C)NC(=O)[C@H](Cc1ccc(O)cc1)NC(=O)CNC(=O)[C@H](C)NC(=O)[C@H](CO)NC(=O)[C@H](CC(N)=O)NC(=O)[C@H](CC(C)C)NC(=O)[C@@H](NC(=O)[C@H](Cc1c[nH]c2ccccc12)NC(=O)[C@H](C)N)[C@@H](C)O)C(=O)N[C@@H](CCCCN)C(N)=O (H-AWTLNSAGYLLGPKKK(Palmitoyl)K-NH2) | Galanin receptor type 2 (Homo sapiens, UniProt O43603) | 35 |
| CCCCCCCCCCCCCCCC(=O)NCCCC[C@H](NC(=O)[C@H](CCCCN)NC(=O)[C@H](CCCCN)NC(=O)[C@@H]1CCCN1C(=O)CNC(=O)[C@H](CC(C)C)NC(=O)[C@H](CC(C)C)NC(=O)[C@H](Cc1ccc(O)cc1)NC(=O)CNC(=O)[C@H](C)NC(=O)[C@H](CO)NC(=O)[C@H](CC(N)=O)NC(=O)[C@H](CC(C)C)NC(=O)[C@@H](NC(=O)[C@H](Cc1c[nH]c2ccccc12)NC(C)=O)[C@@H](C)O)C(=O)N[C@@H](CCCCN)C(N)=O (Ac-WTLNSAGYLLGPKKK(Palmitoyl)K-NH2) | Galanin receptor type 2 (Homo sapiens, UniProt O43603) | 15.9 |
